test system: Carrageenin-induced paw edema; assay: Carrageenin-induced paw edema experiment using rats; type: in vivo, Wistar-strain male rats; conditions: Rattus norvegicus, 3 h; oral, 0.5 mg/kg; three hours after induction; vs control; read-out: Inhibition rate (edema inhibition rate)
Kindly supply the reported inhibition in vivo at 0.5 mg/kg values for the records listed here.
One number for each entry, in %.

Worked examples follow.
CC(C(=O)O)c1ccc(CC2CCCCC2=O)cc1 (stereo not shown) [compound 2, reference compound]	27.1
CC(C(=O)O)c1ccc(C[C@@H]2CCCC[C@H]2O)cc1 (relative stereo) [compound 5, reference compound]	33.7
CC(C(=O)O)c1ccc(C[C@@H]2CCC[C@H]2O)cc1 (relative stereo) [compound 6, reference compound]	38.5

Would you kindly look at the next entry?
For record CC(C(=O)O)c1ccc(C[C@H]2CCC[C@@H]2O)c(F)c1 (relative stereo) the listed inhibition in vivo at 0.5 mg/kg is 60.5
